system tested: T1, HLA-A*02:01 (peptide-receptive MHC class I monomer after UV cleavage of the UV-sensitive ligand) (human)
T1 construct: MHC monomers loaded by UV-ligand exchange and captured on streptavidin plates
experiment notes: UV ligand-exchange ELISA; exchange yield grade (+ >=10%, ++ >=20%, +++ >=50%, ++++ >=75%)
# peptide exchange yield per entry

# binder, measured
rows = [
    ("RLDEAFDFV [RLDEAFDFV (SEQ ID NO: 260)]", "≥ 75%"),
    ("AVLGTSWQL [AVLGTSWQL (SEQ ID NO: 184)]", "50 to 75%"),
    ("ALFKEAYSL [ALFKEAYSL (SEQ ID NO: 21)]", "50 to 75%"),
    ("ILEPFLPAV [ILEPFLPAV (SEQ ID NO: 244)]", "50 to 75%"),
    ("ILVEVDLVQA [ILVEVDLVQA (SEQ ID NO: 55)]", "≥ 75%"),
    ("FLDVSRDFV [FLDVSRDFV (SEQ ID NO: 186)]", "20 to 50%"),
    ("AQFGAVLEV [AQFGAVLEV (SEQ ID NO: 217)]", "50 to 75%"),
]

[in] Need peptide exchange yield, item LLPPPPPVA [LLPPPPPVA (SEQ ID NO: 182)]
[out] ≥ 75%
